# experiment.notes: gradient 5% acetonitrile 3 min, to 50% in 2 min, to 85% in 15 min, held 3 min, 100 µL/min
# setup.conditions: column: Zorbax Extend-C18 2.1 x 50 mm; eluents: water / acetonitrile, 0.1% formic acid
Response field label: string, one of 1 (RP-LC retention time strictly below 900 s) or -1.

Worked set:
O=C(c1csc(S(=O)(=O)N2CCC(C(=O)N3CCc4ccccc43)CC2)c1)N1CCOCC1 :: 1
Cc1nn(C)c2nc(OC(C)C(=O)NCCc3ccccc3)cc(C(F)(F)F)c12 (stereo not drawn) :: -1

Incoming: Take the compound Cc1cc(SCC(=O)Nc2ccccc2Br)nc(-c2ccc(F)cc2)n1 and say whether its RP-LC retention time is less than 900 s.
Outgoing: -1

Incoming: Take the compound Cc1ccc(CN2CCCN(c3ncccc3-c3nc(C(C)C)no3)CC2)cc1 and say whether its RP-LC retention time is less than 900 s.
Outgoing: 1

Incoming: Take the compound CC(C)NC(=O)N1CCCC(OCc2nc(-c3ccccc3)no2)C1 (stereo not drawn) and say whether its RP-LC retention time is less than 900 s.
Outgoing: 1

Incoming: Take the compound Cc1ccccc1Nc1c(-c2ccc(O)cc2)nc2c(C)cccn12 and say whether its RP-LC retention time is less than 900 s.
Outgoing: 1

Incoming: Take the compound CCC1Oc2ccc(S(=O)(=O)N3CCC(C(=O)Nc4ccc5c(c4)OCO5)CC3)cc2NC1=O (stereo not drawn) and say whether its RP-LC retention time is less than 900 s.
Outgoing: 1

Incoming: Take the compound CCS(=O)(=O)N1CCOc2ccc(NC(=O)COC)cc2C1 and say whether its RP-LC retention time is less than 900 s.
Outgoing: 1

Incoming: Take the compound Fc1ccc(-c2nnc(Cc3nc(-c4ccc(F)c(F)c4)no3)o2)cc1 and say whether its RP-LC retention time is less than 900 s.
Outgoing: -1

Incoming: Take the compound CCn1ccc2cc(S(=O)(=O)N3CCCC(C(=O)NC4CCCCC4)C3)ccc21 (stereo not drawn) and say whether its RP-LC retention time is less than 900 s.
Outgoing: -1

Incoming: Take the compound Cc1cccc(C2CC(=O)c3cnc(N4CCN(c5ccccn5)CC4)nc3C2)c1 (stereo not drawn) and say whether its RP-LC retention time is less than 900 s.
Outgoing: 1

Incoming: Take the compound CCn1cnc2cc(-c3noc(C4CC(=O)N(c5ccc(C)c(C)c5)C4)n3)ccc21 (stereo not drawn) and say whether its RP-LC retention time is less than 900 s.
Outgoing: 1

====

# experiment.notes: gradient 5% acetonitrile 3 min, to 50% in 2 min, to 85% in 15 min, held 3 min, 100 µL/min
# setup.conditions: column: Zorbax Extend-C18 2.1 x 50 mm; eluents: water / acetonitrile, 0.1% formic acid
recorded.metric: RP-LC retention time (s)
Answers are plain numbers, in s.

Example molecules with recorded RP-LC retention time:
COc1ccc(NC(=O)N2CCC(n3c(C(F)(F)F)nc4cccnc43)CC2)cc1 :: 898
O=C(C1CCN(S(=O)(=O)N2CCOCC2)CC1)N1CCC(Cc2nc(C3CCOCC3)no2)CC1 :: 681
Cc1ccc2c(c1)C(=O)NC1(CCN(C(=O)c3ccc(C(F)(F)F)cc3)CC1)N2C :: 871
Cc1noc(C)c1CNC(=O)C(C)Oc1ccc(Cl)cc1 (stereo not given) :: 811
COC(=O)c1[nH]c(C)c(CN(C(=O)C2CCCCC2)C2CCCC2)c1C :: 1060
O=C(Nc1ccc(F)cc1)OCCOc1ccc([N+](=O)[O-])cc1 :: 1030
Cc1nn(C(C)C)c(C)c1-c1cc(C(=O)O)[nH]n1 :: 617
COc1ccc(NC(=O)N2CCC3(CC2)NC(=O)c2ccc(Cl)cc2N3C)cc1OC :: 734

Your task in this section: give RP-LC retention time for each listed record.
1. COc1ccc(CNC(=O)Nc2ccc(CC(=O)NCC(F)(F)F)cc2)cc1
2. Cc1ccc(F)cc1NC(=O)Cc1nnc(-c2cnccn2)o1
3. COc1ccc(Cn2c(=O)c3sccc3n(Cc3nc(-c4ccccc4)no3)c2=O)cc1
4. CCc1cc(=O)n(CC(=O)Nc2cccc(C)c2C)c(N)n1
5. COc1ccc(-c2cn3ccn(-c4cc(C)cc(C)c4)c(=O)c3n2)cc1OC
6. O=C(CCc1csc(NC(=O)c2ccc[nH]c2=O)n1)NCC1CCCO1 (stereo not given)
7. COCCN1C(=O)CS(=O)(=O)C12CCN(C(=O)C1(c3ccccc3)CC1)CC2
8. Cc1nc(N2CCN(c3ccccn3)CC2)c2c(C)c(C(=O)Nc3cccc(Cl)c3C)sc2n1

Outgoing:
1: 706; 2: 683; 3: 1000; 4: 608; 5: 797; 6: 573; 7: 685; 8: 752

Your task in this section: give RP-LC retention time for each listed record.
1. Cc1ccc(CNC(=O)C2(C)CN(S(C)(=O)=O)CC(=O)N2CCCc2ccccc2)cc1 (stereo not given)
2. CCCC(=O)N1CCc2c([nH]c3ccccc23)C1c1ccc(F)cc1 (stereo not given)
3. Cc1ccc(C)c(N2CCN(C(=O)c3cn(-c4ccc(NC(=O)C5CC5)cn4)cn3)CC2)c1
4. COc1ccc(CCn2c(-c3cccs3)nc3c(c(=O)c4ccccc4n3C)c2=O)cc1

Outgoing:
927
698
900
880

====

# experiment.notes: gradient 5% acetonitrile 3 min, to 50% in 2 min, to 85% in 15 min, held 3 min, 100 µL/min
# setup.conditions: column: Zorbax Extend-C18 2.1 x 50 mm; eluents: water / acetonitrile, 0.1% formic acid
Response field label: string, one of Yes (RP-LC retention time strictly below 800 s) or No.

Worked set:
Cc1ccccc1-n1ccn(Cc2nc(-c3ccc(C(C)(C)C)cc3)no2)c(=O)c1=O :: No
CC(C)C(=O)NCCc1csc(C2CCCN(C(=O)C(C)(C)C)C2)n1 (centres undefined) :: Yes
O=C(NC1CCCN(c2ccc(=O)[nH]n2)C1)C1(S(=O)(=O)c2ccc(Cl)cc2)CC1 (centres undefined) :: Yes
Cc1ccc(-c2noc(C3CCCN3C(=O)c3ccc4c(c3)OCO4)n2)cc1 (centres undefined) :: No
CCCn1cnc2ccc(-c3noc(C4CC(=O)N(c5ccc(C)cc5)C4)n3)cc21 (centres undefined) :: Yes
Cc1ccc(S(=O)(=O)N2CCOCC2)cc1-c1nnc(-c2ccc(F)cc2)o1 :: No
CC(C)n1cnc2cc(CNC(=O)c3ccnn3C)ccc21 :: Yes
Cn1nccc1C(=O)N1CC2CN(S(=O)(=O)c3cccc(F)c3)CC(C1)O2 :: Yes
CCCc1nc(-c2c(C)cc(C)nc2NC(=O)COc2ccccc2)no1 :: No
Cn1nccc1-c1cccc(-c2noc(-c3ccc(F)cc3Cl)n2)c1 :: No

Incoming: Take the compound O=C(C1CCCO1)N1CCN(c2nc(CN3CCCCC3)cs2)CC1 (centres undefined) and say whether its RP-LC retention time is less than 800 s.
Outgoing: Yes

Incoming: Take the compound Cn1cc(-c2ccncc2)cc1C(=O)N1CCN(c2ccc(Cl)cc2)CC1 and say whether its RP-LC retention time is less than 800 s.
Outgoing: Yes

Incoming: Take the compound COC(=O)C1CCN(S(=O)(=O)c2ccc(Cl)c(-c3nnc(-c4ccccc4)o3)c2)CC1 and say whether its RP-LC retention time is less than 800 s.
Outgoing: No

Incoming: Take the compound CCS(=O)(=O)c1ccc(C(=O)Nc2nc3c(s2)CC(C)CC3)cc1 (centres undefined) and say whether its RP-LC retention time is less than 800 s.
Outgoing: No

Incoming: Take the compound Cn1nnnc1SCC(=O)NCCn1nc(-c2ccco2)ccc1=O and say whether its RP-LC retention time is less than 800 s.
Outgoing: Yes

Incoming: Take the compound O=c1ccc(-c2ccccc2)nn1CCc1nc(-c2cccc(Br)c2)no1 and say whether its RP-LC retention time is less than 800 s.
Outgoing: No

Incoming: Take the compound O=C(CCCc1ccccc1)N1CCN(c2nc(CN3CCOCC3)cs2)CC1 and say whether its RP-LC retention time is less than 800 s.
Outgoing: Yes

Incoming: Take the compound Cc1ccc(-c2nnc(-c3nc(NCCc4cccs4)c4ccccc4n3)o2)cc1 and say whether its RP-LC retention time is less than 800 s.
Outgoing: No

Incoming: Take the compound COc1cccc(-c2ccc(=O)n(Cc3nc(-c4ccccc4Cl)no3)n2)c1 and say whether its RP-LC retention time is less than 800 s.
Outgoing: No

Incoming: Take the compound CN(Cc1ccccc1)C(=O)c1ccc2c(c1)N(Cc1ccccc1)C(=O)CO2 and say whether its RP-LC retention time is less than 800 s.
Outgoing: No

====

# experiment.notes: gradient 5% acetonitrile 3 min, to 50% in 2 min, to 85% in 15 min, held 3 min, 100 µL/min
# setup.conditions: column: Zorbax Extend-C18 2.1 x 50 mm; eluents: water / acetonitrile, 0.1% formic acid
Kindly return 1 if reported RP-LC retention time is no lower than 700 s; return -1 if it is lower.

O=S(=O)(c1cccc(Cl)c1)c1nnn2c1nc(N1CCCC1)c1sccc12 :: 1
CCOc1nc2ccccc2nc1N1CCCC(C(=O)Nc2ccccc2F)C1 (stereo not given) :: 1
COc1ccc(CN2CCc3nc(N4CCN(c5ccccc5F)CC4)ncc3C2)cc1 :: 1
CCOc1cccc(-c2noc(Cn3c(=O)n(-c4ccccc4C)c(=O)c4sccc43)n2)c1 :: 1
O=C(Cc1nnc(-c2cccc(F)c2)o1)N1CCOCC1 :: -1
O=C(NCc1ccc(F)cc1)c1cn2cc(Cl)ccc2n1 :: 1
COc1cc(-c2nc3ccccn3c2Nc2ccccc2C)ccc1O :: -1
CC1CCC(NC(=O)c2ccc(Cn3cncn3)cc2)CC1 (stereo not given) :: 1

In the following, a different compound is considered.
Incoming: Hi team, for COC(=O)C1=C(CN2CCCC2)NC(=O)NC1c1ccccc1C (stereo not given) , is the recorded RP-LC retention time at or above 700 s?
Outgoing: -1
